Target: T1, recombinant human CD123-Fc (human, UniProt P26951 19-305)
T1 construct: not shown: Fc part of CD123-Fc
T1 sequence: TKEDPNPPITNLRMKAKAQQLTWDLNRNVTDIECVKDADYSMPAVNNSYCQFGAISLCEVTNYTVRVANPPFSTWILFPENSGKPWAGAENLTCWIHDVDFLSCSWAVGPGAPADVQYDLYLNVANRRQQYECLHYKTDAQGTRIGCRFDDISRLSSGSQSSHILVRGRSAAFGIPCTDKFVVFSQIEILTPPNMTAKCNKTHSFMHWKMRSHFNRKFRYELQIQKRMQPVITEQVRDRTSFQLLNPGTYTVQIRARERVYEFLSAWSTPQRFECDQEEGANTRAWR
Assay: phage ELISA, captured CD123-Fc
Each entry below carries its recorded ELISA_avg.
Field: numeric (ratio A450 target/IgG1-Fc). Do not append units.

Study these solved cases before continuing.
SEQ ID NO: 334 (designed binder, D domain, on phage) MGSWDEFAWRLDVIFARLGALGGSEAELAAFEKEIAAFESELQAYKGKGNPEVEELRKNAAQIRDGLQAYRHN	4.6
SEQ ID NO: 619 (designed binder, D domain, on phage) MGSWIEFWNRLEAIEERLYALGGSEAELAYFEDEIAEFEIYLQQYKGKGNPEVEALKHEAEAINKELMAYRHN	5.2
SEQ ID NO: 593 (designed binder, D domain, on phage) MGSWFEFDARLMAINDRLWALGGSEAELAAFEYHIALFEDQLQMYKGKGNPEVEALTLEAVAINEELWAYRHN	4
SEQ ID NO: 523 (designed binder, D domain, on phage) MGSWDEFKEDLAHIKTDLEALGGSEAELALFEDEIADFEMYLQHYKGKGNPEVEALRKEAAAIRDELQAYRHN	6.3

Request the reported ELISA_avg associated with SEQ ID NO: 320 (designed binder, D domain, on phage) MGSWSEFWQRLEAIEDRLWALGGSEAELAAFEKEIAAFESELQAYKGKGNPEVEWLRENAAMIRDELQAYRHN 4.7

Proceed to SEQ ID NO: 446 (designed binder, D domain, on phage) MGSWTFFKEDLAGIKWELEALGGSEAELAWFEDEIALFEEELQEYKGKGNPEVEALRKEAAAIRDELQAYRHN 7

Proceed to SEQ ID NO: 325 (designed binder, D domain, on phage) MGSWTEFSIRLEAIYDRLVALGGSEAELAAFEKEIAAFESELQAYKGKGNPEVEVLRTYAANIRHELQAYRHN 11.9

Proceed to SEQ ID NO: 332 (designed binder, D domain, on phage) MGSWVEFHDRLEAIEDRLLALGGSEAELAAFEKEIAAFESELQAYKGKGNPEVEDLREYAAGIRWFLQAYRHN 3.3

Proceed to SEQ ID NO: 615 (designed binder, D domain, on phage) MGSWEEFHMRLIAIDERLWALGGSEAELAGFEESIAYFESQLQDYKGKGNPEVEALDYEAHAIWRELYAYRHN 3.9

Proceed to SEQ ID NO: 545 (designed binder, D domain, on phage) MGSWYEFDHRLEAIYDRLWALGGSEAELAFFEFDIADFEWDLQSYKGKGNPEVEALFDEAAAIGHELLAYRHN 4.5

// provenance: patent US20230125550A1
